ASSAY_OVERVIEW: Organ distribution in normal ICR mice after iv injection of radiolabeled tracer
Type: in vivo
CONDITION_LABEL: [125I]-labeled tracer, 1 hr
Please go through the items and note down their Biodistribution: Liver.
One number for each entry, in % dose/g.

As a guide, the following entries are already answered.
{"columns": ["COMPOUND", "QUANTITY_MEASURED", "UNIT_ABBREVIATION", "RECORDED_MEASUREMENT"],
 "data": [
  ["CNc1ccc(/C=C/c2cnc(OCCO)c(I)c2)cc1 [[^125I]16b]", "Biodistribution: Liver", "% dose/g", 5.62],
  ["CN(C)c1ccc(/C=C/c2cnc(OCCO)c(I)c2)cc1 [[^125I]16a]", "Biodistribution: Liver", "% dose/g", 6.22],
  ["CN(C)c1ccc(/C=C/c2cnc(OCCOCCOCCF)c(I)c2)cc1 [[^125I]13a]", "Biodistribution: Liver", "% dose/g", 5.34]
]}

Now for the compound whose Biodistribution: Liver we want.
Asked: Look up Biodistribution: Liver for this compound: CNc1ccc(/C=C/c2cnc(OCCOCCOCCF)c(I)c2)cc1 [[^125I]13b]
Given back: 7.70

---

ASSAY_OVERVIEW: Organ distribution in normal ICR mice after iv injection of radiolabeled tracer
Format: in vivo
CONDITION_LABEL: [125I]-labeled tracer, 2 min
QUANTITY_MEASURED: Biodistribution: Brain
A bare number is not enough; add the unit after it.

Examples with their reported Biodistribution: Brain follow.
{"columns": ["MOLECULE", "QUANTITY_MEASURED", "RECORDED_MEASUREMENT"],
 "data": [
  ["CNc1ccc(/C=C/c2cnc(OCCOCCOCCF)c(I)c2)cc1 [[^125I]13b]", "Biodistribution: Brain", "6.22 ± 1.01 % dose/g"],
  ["CN(C)c1ccc(/C=C/c2cnc(OCCOCCOCCF)c(I)c2)cc1 [[^125I]13a]", "Biodistribution: Brain", "4.03 ± 0.43 % dose/g"],
  ["CN(C)c1ccc(/C=C/c2cnc(OCCO)c(I)c2)cc1 [[^125I]16a]", "Biodistribution: Brain", "5.43 ± 0.85 % dose/g"]
]}

Next item in the queue.
Asked: # input molecule: CNc1ccc(/C=C/c2cnc(OCCO)c(I)c2)cc1 [[^125I]16b] ; wanted: its Biodistribution: Brain
Given back: 8.04 ± 0.82 % dose/g

---

Would you kindly list Biodistribution: Kidney for each of these molecules?
ASSAY_OVERVIEW: Organ distribution in normal ICR mice after iv injection of radiolabeled tracer
Assay type: in vivo
CONDITION_LABEL: [125I]-labeled tracer, 2 min
Record the result as number plus unit.

{"columns": ["MOLECULE", "RECORDED_MEASUREMENT"],
 "data": [
  ["CN(C)c1ccc(/C=C/c2cnc(OCCO)c(I)c2)cc1 [[^125I]16a]", "14.25 ± 1.98 % dose/g"],
  ["CNc1ccc(/C=C/c2cnc(OCCOCCOCCF)c(I)c2)cc1 [[^125I]13b]", "9.03 ± 6.81 % dose/g"],
  ["CN(C)c1ccc(/C=C/c2cnc(OCCOCCOCCF)c(I)c2)cc1 [[^125I]13a]", "16.62 ± 1.96 % dose/g"]
]}

Switching to the query record.
Asked: Fill in: Biodistribution: Kidney of CNc1ccc(/C=C/c2cnc(OCCO)c(I)c2)cc1 [[^125I]16b] is ___
Given back: 11.51 ± 1.48 % dose/g

---

Please provide measured Biodistribution: Blood for the entries that follow.
ASSAY_OVERVIEW: Organ distribution in normal ICR mice after iv injection of radiolabeled tracer
Format: in vivo
CONDITION_LABEL: [125I]-labeled tracer, 30 min
Answers are plain numbers, in % dose/g.

{"columns": ["MOLECULE", "QUANTITY_MEASURED", "RECORDED_MEASUREMENT"],
 "data": [
  ["CN(C)c1ccc(/C=C/c2cnc(OCCOCCOCCF)c(I)c2)cc1 [[^125I]13a]", "Biodistribution: Blood", 2.05],
  ["CNc1ccc(/C=C/c2cnc(OCCO)c(I)c2)cc1 [[^125I]16b]", "Biodistribution: Blood", 3.08],
  ["CNc1ccc(/C=C/c2cnc(OCCOCCOCCF)c(I)c2)cc1 [[^125I]13b]", "Biodistribution: Blood", 3.83]
]}

Note: attention shifts to another entry.
Asked: What value of measured Biodistribution: Blood is listed for CN(C)c1ccc(/C=C/c2cnc(OCCO)c(I)c2)cc1 [[^125I]16a] ?
Given back: 2.24

---

ASSAY_OVERVIEW: Organ distribution in normal ICR mice after iv injection of radiolabeled tracer
Assay type: in vivo
CONDITION_LABEL: [125I]-labeled tracer, 2 min
Kindly supply the reported Biodistribution: Blood values for the records listed here.
One number for each entry, in % dose/g.

{"columns": ["COMPOUND", "UNIT_ABBREVIATION", "RECORDED_MEASUREMENT"],
 "data": [
  ["CNc1ccc(/C=C/c2cnc(OCCOCCOCCF)c(I)c2)cc1 [[^125I]13b]", "% dose/g", 4.37],
  ["CNc1ccc(/C=C/c2cnc(OCCO)c(I)c2)cc1 [[^125I]16b]", "% dose/g", 4.14],
  ["CN(C)c1ccc(/C=C/c2cnc(OCCOCCOCCF)c(I)c2)cc1 [[^125I]13a]", "% dose/g", 2.70]
]}

Now take the following compound into account.
Asked: Query (compound): CN(C)c1ccc(/C=C/c2cnc(OCCO)c(I)c2)cc1 [[^125I]16a] ; field requested: Biodistribution: Blood
Given back: 2.71

---

ASSAY_OVERVIEW: Organ distribution in normal ICR mice after iv injection of radiolabeled tracer
Type: in vivo
CONDITION_LABEL: [125I]-labeled tracer, 30 min
QUANTITY_MEASURED: Biodistribution: Heart
Include the unit right after the number.

Check out these entries, answers already filled in.
{"columns": ["COMPOUND", "RECORDED_MEASUREMENT"],
 "data": [
  ["CNc1ccc(/C=C/c2cnc(OCCOCCOCCF)c(I)c2)cc1 [[^125I]13b]", "2.54 ± 0.37 % dose/g"],
  ["CN(C)c1ccc(/C=C/c2cnc(OCCOCCOCCF)c(I)c2)cc1 [[^125I]13a]", "1.63 ± 0.03 % dose/g"]
]}

Give measured Biodistribution: Heart for every item shown.
1. CNc1ccc(/C=C/c2cnc(OCCO)c(I)c2)cc1 [[^125I]16b]
2. CN(C)c1ccc(/C=C/c2cnc(OCCO)c(I)c2)cc1 [[^125I]16a]

Given back:
1: 1.50 ± 0.18 % dose/g; 2: 1.93 ± 0.27 % dose/g

---

ASSAY_OVERVIEW: Organ distribution in normal ICR mice after iv injection of radiolabeled tracer
Type: in vivo
CONDITION_LABEL: [125I]-labeled tracer, 1 hr
Exercise: for every item that follows, state its recorded Biodistribution: Muscle.
Answer format: value, then unit.

{"columns": ["COMPOUND", "RECORDED_MEASUREMENT"],
 "data": [
  ["CNc1ccc(/C=C/c2cnc(OCCOCCOCCF)c(I)c2)cc1 [[^125I]13b]", "0.85 ± 0.06 % dose/g"],
  ["CN(C)c1ccc(/C=C/c2cnc(OCCO)c(I)c2)cc1 [[^125I]16a]", "0.55 ± 0.03 % dose/g"]
]}

// each listed compound needs a value for Biodistribution: Muscle
1. CNc1ccc(/C=C/c2cnc(OCCO)c(I)c2)cc1 [[^125I]16b]
2. CN(C)c1ccc(/C=C/c2cnc(OCCOCCOCCF)c(I)c2)cc1 [[^125I]13a]

Given back:
1. 0.42 ± 0.08 % dose/g
2. 0.59 ± 0.13 % dose/g

---

ASSAY_OVERVIEW: Organ distribution in normal ICR mice after iv injection of radiolabeled tracer
Format: in vivo
CONDITION_LABEL: [125I]-labeled tracer, 2 hr
Description: The mice (n=3 for each time point) were sacrificed by cervical dislocation at designated time-points post injection. The organs of interest were removed and weighed, and the radioactivity was counted with an automatic gamma counter. The percentage dose per organ was calculated by a comparison of the tissue counts to suitably diluted aliquots of the injected material. The total activity of the blood was calculated under the assumption that it is 7% of the total body weight. […]
Consider the following compounds; for each one, report its Biodistribution: Heart.
Write your answer as a measured quantity: the number, then the unit.

Examples with answers:
{"columns": ["COMPOUND", "QUANTITY_MEASURED", "RECORDED_MEASUREMENT"],
 "data": [
  ["CN(C)c1ccc(/C=C/c2cnc(OCCO)c(I)c2)cc1 [[^125I]16a]", "Biodistribution: Heart", "0.62 ± 0.12 % dose/g"],
  ["CNc1ccc(/C=C/c2cnc(OCCO)c(I)c2)cc1 [[^125I]16b]", "Biodistribution: Heart", "0.76 ± 0.03 % dose/g"],
  ["CN(C)c1ccc(/C=C/c2cnc(OCCOCCOCCF)c(I)c2)cc1 [[^125I]13a]", "Biodistribution: Heart", "0.73 ± 0.17 % dose/g"]
]}

Kindly consider the entry below.
Asked: Report Biodistribution: Heart for CNc1ccc(/C=C/c2cnc(OCCOCCOCCF)c(I)c2)cc1 [[^125I]13b] please.
Given back: 1.22 ± 0.28 % dose/g
